Test system: Bacillus subtilis
Test Method Notes: cleaved RNA product abundance (RNA/gDNA barcode ratio) relative to median wild-type variant (ratio to wild type); higher = more accumulation of the downstream cleavage product
Test Settings: experiment (reporter, strain, medium): exp 4a: truncated aprE reporter, strain BJT201 with 2% xylose (RNase J1 expressed); cleavage site: cggR-gapA (positions -7 to +36 mutated)
Recorded Endpoint: cleaved RNA product abundance

Reference set (3 entries):
>>> print(df.to_string())
                             sequence_chain  result
0  ACAGACGAAGGAGCCGCAAAGAAGTTATTAAGAGATGAATAATCCCTCTATATAAATATCTCTCACTTATTTAAA   0.118
1  ACAGACGAAGGAGCCGCAAAGAAGTTATTAAGGAAAGAATAATCCCTCAATATAAATATCTCTCACTTATTTAAA  0.0978
2  ACAGACGAAGGAGCCGCAAAGAATTTATTAAGGGATGAATAATTCCTCAATATAAATATCTCTCACTTATTTAAA   0.394

Lab note: measured cleaved RNA product abundance of ACAGACGAAGGAGCCGCAAAGAAGATGTTAAGGGATGAATAATCCCTCAATATAAATATCTCTCACTTATTTAAA was 0.741

Lab note: measured cleaved RNA product abundance of ACAGACGAAGGAGCCGCAAAGAAGTTATTAAGGAATGAATAATCCCTCTATATAAATATCTCTCACTTATTTAAA was 0.119

Lab note: measured cleaved RNA product abundance of ACAGACGAAGGAGCCGCAAAGAAGTTATTAAGGGATGTATAATCCCTCAATATAAAAATCTCTCACTTATTTAAA was 0.439

Lab note: measured cleaved RNA product abundance of ACAGACGAAGGAGCCGCAAAGAAGTTATTAAAGGATGAATAATCCCTCAATATAAATGTCTCTCACTTATTTAAA was 0.155

Lab note: measured cleaved RNA product abundance of ACAGACGAAGGAGCCGCAAAGAAGTTAATAAGGGATGCATAATCCCTCAATATAAATATCTCTCACTTATTTAAA was 0.301

====

Test system: Bacillus subtilis
Test Method Notes: cleaved RNA product abundance (RNA/gDNA barcode ratio) relative to median wild-type variant (ratio to wild type); higher = more accumulation of the downstream cleavage product
Test Settings: experiment (reporter, strain, medium): exp 6: tetM reporter, strain 168; cleavage site: cggR-gapA (positions -7 to +36 mutated)
Returns 1 if the recorded cleaved RNA product abundance is greater than or equal to 0.5, and -1 otherwise.

Previously resolved entries follow.
                             sequence_chain  class_name
0  ACAGACGAAGGAGCCGCAAAGAAATTATTAAGGGATAAATAATCCCTCAATATAAATATCTCTCACTTATTTAAA           1
1  ACAGACGAAGGAGCCGCAAAGAAGTTACTAAGGGATGAATAATCCCTCAATATAAATATCTCTCACTTATTTAAA          -1
2  ACAGACGAAGGAGCCGCAAAGAAGTTATTAAGGGATGAATAAACCCTCAATATAAATATCTCTCACTTATTTAAA           1
3  ACAGACGAAGGAGCCGCAAAGAAGTTATTAAGGGATGAATAATCCCTCTATATAAATATCTCTCACTTATTTAAA           1
4  ACAGACGAAGGAGCCGCAAAGAAGTTATTAAGGGATGACTAATCCCTCAATATAAATATCTCTCACTTATTTAAA           1

q: Given ACAGACGAAGGAGCCGCAAAGAAGTTATTAAGGGATGAATAATCCCTGAATATAAATATCTCTCACTTATTTAAA , state whether its cleaved RNA product abundance is at least 0.5.
a: 1

q: Given ACAGACGAAGGAGCCGCAAAGTAGTTATTAAGGGATGAATAATCCCTCAAAATAAATATCTCTCACTTATTTAAA , state whether its cleaved RNA product abundance is at least 0.5.
a: -1

q: Given ACAGACGAAGGAGCCGCAAAGAAGTTAGTAAGGGATGAATAATCCCTCAATATAAATATCTCTCACTTATTTAAA , state whether its cleaved RNA product abundance is at least 0.5.
a: 1

q: Given ACAGACGAAGGAGCCGCAAAGAAGTTATTAAGGTATGAATAATCCCTTAATATAAATATCTCTCACTTATTTAAA , state whether its cleaved RNA product abundance is at least 0.5.
a: -1

q: Given ACAGACGAAGGAGCCGCAAAGGAGTTATTAAGGGATGAATAATCCCTCAATATAAATATCTCTCACTTATTTAAA , state whether its cleaved RNA product abundance is at least 0.5.
a: 1

q: Given ACAGACGAAGGAGCCTCAAAGAAGTTATTAAGTGATGAATAATCCCTCAATATAAATATCTCTCACTTATTTAAA , state whether its cleaved RNA product abundance is at least 0.5.
a: -1

q: Given ACAGACGAAGGAGCCGCAAAGAACTTATTAAGGGATGAATAATCCCTCAATATAAATATCTCTCACTTATTTAAA , state whether its cleaved RNA product abundance is at least 0.5.
a: 1

q: Given ACAGACGAAGGAGCCGCAAAGAAGTTATTAAGGGATGAATACTCCATCAATATAAATATCTCTCACTTATTTAAA , state whether its cleaved RNA product abundance is at least 0.5.
a: -1

q: Given ACAGACGAAGGAGCCGCAAAGAAGTTATTAAGGGATGAATAATCCCTCGATATAAATATCTCTCACTTATTTAAA , state whether its cleaved RNA product abundance is at least 0.5.
a: 1

q: Given ACAGACGAAGGAGCCGCAAAGAAGTTATTAAGGGATGAATAATCCGTCAATATAAATATCTCTCACTTATTTAAA , state whether its cleaved RNA product abundance is at least 0.5.
a: -1

q: Given ACAGACGAAGGAGCCGCAAAGAAGTTATTAAGGGCTGAATAATCCCTCAATATAAATATCTCTCACTTATTTAAA , state whether its cleaved RNA product abundance is at least 0.5.
a: -1

q: Given ACAGACGAAGGAGCCGCAAAGAAGTTATTAAGGGATGAATAATCCCTCAGTATAAATATCTCTCACTTATTTAAA , state whether its cleaved RNA product abundance is at least 0.5.
a: -1

q: Given ACAGACGAAGGAGCCGCAAAGAAGTTATTAAGGGATGAATAATCCCTCACTATAAATATCTCTCACTTATTTAAA , state whether its cleaved RNA product abundance is at least 0.5.
a: -1

q: Given ACAGACGAAGGAGCTGCAAAGAAGTTATTAAGGAATGAATAATCCCTCAATATAAATATCTCTCACTTATTTAAA , state whether its cleaved RNA product abundance is at least 0.5.
a: -1

q: Given ACAGACGAAGGAGCCGCAAAGAAGATATTAAGGGATGAATAATCCCTAAATATAAATATCTCTCACTTATTTAAA , state whether its cleaved RNA product abundance is at least 0.5.
a: -1

q: Given ACAGACGAAGGAGCCGCAAAGAAGTTGTTAAGGGATGAATAATACCTCAATATAAATATCTCTCACTTATTTAAA , state whether its cleaved RNA product abundance is at least 0.5.
a: -1

q: Given ACAGACGAAGGAGCCGCAAAGAGGTTATTAAGGGATGAATAATCCCTCAATATAAATATCTCTCACTTATTTAAA , state whether its cleaved RNA product abundance is at least 0.5.
a: 1

q: Given ACAGACGAAGGAGCCGCAAAGAAGTTATTAAGGGATGAATAATCCCTCAATACAAATATCTCTCACTTATTTAAA , state whether its cleaved RNA product abundance is at least 0.5.
a: -1

q: Given ACAGACGAAGGAGCCGCAAAAAAGATATTAAGGGATGAATAATCCCTCAATATAAATATCTCTCACTTATTTAAA , state whether its cleaved RNA product abundance is at least 0.5.
a: -1

q: Given ACAGACGAAGGAGCCGCAAAGAACTTATTAAGGGATGAATAATCCCTTAATATAAATATCTCTCACTTATTTAAA , state whether its cleaved RNA product abundance is at least 0.5.
a: -1

q: Given ACAGACGAAGGAGCCGCAAAGAAGTTATTAAGGGATGAATAATCCCTCAATATAAATAGCTCTCACTTATTTAAA , state whether its cleaved RNA product abundance is at least 0.5.
a: 1

====

Tested on: Bacillus subtilis
Test Method Notes: cleaved RNA product abundance (RNA/gDNA barcode ratio) relative to median wild-type variant (ratio to wild type); higher = more accumulation of the downstream cleavage product
Test Settings: experiment (reporter, strain, medium): exp 2b: truncated aprE reporter, strain BJT200; cleavage site: cggR-gapA (positions -7 to +36 mutated)
Returns Satisfied if the recorded cleaved RNA product abundance is greater than or equal to 0.3, and Not satisfied otherwise.

>>> df
                             sequence_chain     class_name
0  ACAGACGAAGGAGCCGCAAAGAAGTTATTAAGGGATGGATAATCCCTCAATATAAATATCTCTCACTTATTTAAA      Satisfied
1  ACAGACGAAGGAGCCGCAAAGAAGTTATTAAGCGATGAATAATTCCTCAATATAAATATCTCTCACTTATTTAAA  Not satisfied
2  ACAGACGAAGGAGCCGCAAAACAGTTATTAAGGGATGAATAATCCCTCAATATAAATATCTCTCACTTATTTAAA      Satisfied
3  ACAGACGAAGGAGCCGCAAAGAAGTTATTACGGCATGAATAATCCCTCAATATAAATATCTCTCACTTATTTAAA  Not satisfied

q: Given ACAGACGAAGGAGCCGCAAAGGAGCTATTAAGGGATGAATAATCCCTCAATATAAATATCTCTCACTTATTTAAA , state whether its cleaved RNA product abundance is at least 0.3.
a: Satisfied

q: Given ACAGACGAAGGAGCCGCAAAGAAGTTACTAAGTGATGAATAATCCCTCAATATAAATATCTCTCACTTATTTAAA , state whether its cleaved RNA product abundance is at least 0.3.
a: Not satisfied

src = the supplement of paper PMC11780869
